system: human hepatoma cell line Hep-G2; test: Cytotoxicity towards tumour cells in vitro (Cell Titer 96 formazane colorimetric assay); type: cell-based; settings: 10^−6 M, 48 h, percentage inhibition of the formation of formazane relative to the control
OBSERVABLE: Cytotoxicity at 10^−6 M (%)
# output: bare number, implied unit %

Below, each entry is followed by its recorded Cytotoxicity at 10^−6 M result.
{"columns": ["TEST SMILES", "RECORDED MEASUREMENT"],
 "data": [
  ["O=C(NO)c1ccc(NC(=O)[C@H](Cc2ccc3ccccc3c2)NC(=O)c2ccccc2)cc1", 43.2],
  ["CC(=O)N[C@@H](Cc1ccccc1)C(=O)Nc1ccc(C(=O)NO)cc1", 13.3]
]}

Return Cytotoxicity at 10^−6 M for the following compound: O=C(NO)c1ccc(NC(=O)[C@H](Cc2ccc(-c3ccccc3)cc2)NC(=O)c2cncc(Br)c2)cc1
10.5

Return Cytotoxicity at 10^−6 M for the following compound: O=C(NO)c1ccc(NC(=O)[C@H](Cc2ccc3ccccc3c2)NC(=O)c2ccc3c(c2)OCO3)cc1
48.5

Return Cytotoxicity at 10^−6 M for the following compound: O=C(NO)c1ccc(NC(=O)[C@@H](Cc2ccc3ccccc3c2)NC(=O)c2ccccc2)cc1
22.6

Return Cytotoxicity at 10^−6 M for the following compound: Nc1ccc(C(=O)N[C@H](Cc2ccc3ccccc3c2)C(=O)Nc2ccc(C(=O)NO)cc2)cc1
14.4

Return Cytotoxicity at 10^−6 M for the following compound: O=C(NO)c1ccc(NC(=O)[C@H](Cc2ccccc2)NC(=O)c2ccc3ccccc3c2)cc1
15.3

Return Cytotoxicity at 10^−6 M for the following compound: CC(=O)N[C@@H](Cc1ccc(O)cc1)C(=O)Nc1ccc(C(=O)NO)cc1
15.7

Return Cytotoxicity at 10^−6 M for the following compound: CC(=O)N[C@@H](Cc1ccc2ccccc2c1)C(=O)Nc1ccc(C(=O)NO)cc1
9.6

Return Cytotoxicity at 10^−6 M for the following compound: CC(=O)N[C@@H](Cc1ccc(C(F)(F)F)cc1)C(=O)Nc1ccc(C(=O)NO)cc1
15.8
